Test system: SW 1271 complex spheroids, viability
Test: Anticancer human tumor SW 1271 cell line growth inhibition [LSD1];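 further: spheroids exposed to agents for 7 days before luminescence read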;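 on viability, T/C: 100% = DMSO vehicle control viability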
Conditions: second compound 0.316 µM; first compound 1 µM; stronger effect = lower value
Sorting guide: entries reporting viability, T/C beneath 50% go in the yes pile, the rest go in the no pile.

// below: answered molecules
- CC(C)c1c(-c2ccccc2)nc2c(C#N)c[nH]n2c1=O + NC1CCC(NC2CC2c2ccccc2)CC1: no
- O=C(C=Cn1cnc(-c2cc(C(F)(F)F)cc(C(F)(F)F)c2)n1)NNc1cnccn1 + NC1CCC(NC2CC2c2ccccc2)CC1: yes

Problem: For the molecule O=C(c1cc(Cc2n[nH]c(=O)c3ccccc23)ccc1F)N1CCN(C(=O)C2CC2)CC1 + NC1CCC(NC2CC2c2ccccc2)CC1 , is viability, T/C under 50%? no

Problem: For the molecule CC1COCCN1c1cc(-c2ccnn2C)c2ccnc(-c3ccn[nH]3)c2n1 (stereo not given) + NC1CCC(NC2CC2c2ccccc2)CC1 , is viability, T/C under 50%? yes

Problem: For the molecule CC(C)c1c(-c2ccccc2)nc2c(C#N)c[nH]n2c1=O + NC1CC1c1ccc(-c2cccc(O)c2)cc1 , is viability, T/C under 50%? no

----------
Reported values of pIC50 for individual entries
Test system: SW 1271 complex spheroids, viability
Assay: Anticancer human tumor SW 1271 cell line growth inhibition [LSD1];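 further: spheroids exposed to agents for 7 days before luminescence read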
Conditions: curve of first compound; second compound 10 µM
pIC50 is defined as minus the log10 of a concentration measured in mol/L.

- CC1COCCN1c1cc(C2(S(C)(=N)=O)CC2)nc(-c2ccnc3[nH]ccc23)n1 (centres undefined) + NC1CCC(NC2CC2c2ccccc2)CC1: 5.48

Answer with reported pIC50 of Nc1ccccc1NC(=O)c1ccc(CNC(=O)OCc2cccnc2)cc1 + NC1CC1c1ccc(-c2cccc(O)c2)cc1 7.42

----------
Test system: SW 1271 complex spheroids, viability
Assay: Anticancer human tumor SW 1271 cell line growth inhibition [LSD1];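 further: spheroids exposed to agents for 7 days before luminescence read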;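 on viability, T/C: 100% = DMSO vehicle control viability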
Conditions: second compound 0.316 µM; first compound 0.316 µM; stronger effect = lower value
readout-type: viability, T/C (%)
Write the value in % as a bare number.

These recorded examples may help you get a feel for the data.
* CC1COCCN1c1cc(-c2ccnn2C)c2ccnc(-c3ccn[nH]3)c2n1 (stereo unspecified) + NC1CCC(NC2CC2c2ccccc2)CC1 | 48.8
* CC1COCCN1c1cc(C2(S(C)(=N)=O)CC2)nc(-c2ccnc3[nH]ccc23)n1 (stereo unspecified) + NC1CC1c1ccc(-c2cccc(O)c2)cc1 | 65
* COc1ccc([C@@H](O)c2cc(-c3ncnc4cc(N5CCOCC5)ccc34)c(F)cc2Cl)nn1 + NC1CCC(NC2CC2c2ccccc2)CC1 | 58.2
* COc1cc(Nc2ncc3c(n2)-c2ccc(Cl)cc2C(c2c(F)cccc2OC)=NC3)ccc1C(=O)O + NC1CCC(NC2CC2c2ccccc2)CC1 | 36
* CC1COCCN1c1cc(C2(S(C)(=N)=O)CC2)nc(-c2ccnc3[nH]ccc23)n1 (stereo unspecified) + NC1CCC(NC2CC2c2ccccc2)CC1 | 99.1

Proceeding to the next molecule to report its viability, T/C.
Answer with reported viability, T/C of CC1(C)CCC(CN2CCN(c3ccc(C(=O)NS(=O)(=O)c4ccc(NCC5CCOCC5)c([N+](=O)[O-])c4)c(Oc4cnc5[nH]ccc5c4)c3)CC2)=C(c2ccc(Cl)cc2)C1 + NC1CCC(NC2CC2c2ccccc2)CC1 106

----------
Tested on: SW 1271 complex spheroids, viability
Experiment: Anticancer human tumor SW 1271 cell line growth inhibition [LSD1];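 further: spheroids exposed to agents for 7 days before luminescence read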;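 on viability, T/C: 100% = DMSO vehicle control viability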
Settings: second compound 10 µM; first compound 0.000949 µM; stronger effect = lower value
Sorting guide: entries reporting viability, T/C beneath 70% go in the yes (1) pile, the rest go in the no (0) pile.

• Nc1ccn(C2OC(CO)C(O)C2(F)F)c(=O)n1 (stereo unspecified) + NC1CCC(NC2CC2c2ccccc2)CC1 = no (0)
• CCc1c2c(nc3ccc(O)cc13)-c1cc3c(c(=O)n1C2)COC(=O)[C@]3(O)CC + NC1CCC(NC2CC2c2ccccc2)CC1 = yes (1)
• Nc1ccn(C2OC(CO)C(O)C2(F)F)c(=O)n1 (stereo unspecified) + NC1CC1c1ccc(-c2cccc(O)c2)cc1 = yes (1)
• Nc1ncn(C2CC(O)C(CO)S2)c(=O)n1 (stereo unspecified) + NC1CC1c1ccc(-c2cccc(O)c2)cc1 = yes (1)

Next:
Problem: For the molecule CCc1c2c(nc3ccc(O)cc13)-c1cc3c(c(=O)n1C2)COC(=O)[C@]3(O)CC + NC1CC1c1ccc(-c2cccc(O)c2)cc1 , is viability, T/C under 70%? yes (1)

----------
System: SW 1271 complex spheroids, viability
Assay: Anticancer human tumor SW 1271 cell line growth inhibition [LSD1]; active means viability on the fitted dose curve at most 10% of control; inactive means the rest;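 further: spheroids exposed to agents for 7 days before luminescence read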
Conditions: second compound 0.1 µM; first compound 0.3 µM
Hi there, use one of these labels in your reply, thanks! active, inactive

- COc1cc(C2c3cc4c(cc3C(OC3OC5COC(C)OC5C(O)C3O)C3COC(=O)C23)OCO4)cc(OC)c1O (configuration not stated) + NC1CCC(NC2CC2c2ccccc2)CC1: inactive
- Nc1ncn(C2CC(O)C(CO)S2)c(=O)n1 (configuration not stated) + NC1CCC(NC2CC2c2ccccc2)CC1: inactive
- Nc1ccn(C2OC(CO)C(O)C2(F)F)c(=O)n1 (configuration not stated) + NC1CC1c1ccc(-c2cccc(O)c2)cc1: inactive
- Nc1ccccc1NC(=O)c1ccc(CNC(=O)OCc2cccnc2)cc1 + NC1CC1c1ccc(-c2cccc(O)c2)cc1: inactive
- NS(=O)(=O)OCC1CC(n2ccc3c(NC4CCc5ccccc54)ncnc32)CC1O (configuration not stated) + NC1CCC(NC2CC2c2ccccc2)CC1: inactive
- CCc1c2c(nc3ccc(O)cc13)-c1cc3c(c(=O)n1C2)COC(=O)[C@]3(O)CC + NC1CC1c1ccc(-c2cccc(O)c2)cc1: active

Each molecule tested received a call. Report the one for CCN(c1cc(-c2ccc(CN3CCOCC3)cc2)cc(C(=O)NCc2c(C)cc(C)[nH]c2=O)c1C)C1CCOCC1 + NC1CC1c1ccc(-c2cccc(O)c2)cc1 . inactive

----------
Reported values of viability, T/C for individual entries
Test system: SW 1271 complex spheroids, viability
Assay: Anticancer human tumor SW 1271 cell line growth inhibition [LSD1];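 further: spheroids exposed to agents for 7 days before luminescence read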;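 on viability, T/C: 100% = DMSO vehicle control viability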
Conditions: second compound 1 µM; first compound 0.949 µM; stronger effect = lower value
Write the value in % as a bare number.

These recorded examples may help you get a feel for the data.
* O=C(C=Cc1cccc(S(=O)(=O)Nc2ccccc2)c1)NO + NC1CC1c1ccc(-c2cccc(O)c2)cc1 | 6.33
* Nc1ccccc1NC(=O)c1ccc(CNC(=O)OCc2cccnc2)cc1 + NC1CCC(NC2CC2c2ccccc2)CC1 | 7.27

Proceeding to the next compound to report its viability, T/C.
Answer with reported viability, T/C of Nc1ccccc1NC(=O)c1ccc(CNC(=O)OCc2cccnc2)cc1 + NC1CC1c1ccc(-c2cccc(O)c2)cc1 7.28

----------
Tested on: SW 1271 complex spheroids, viability
Assay: Anticancer human tumor SW 1271 cell line growth inhibition [LSD1];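 further: spheroids exposed to agents for 7 days before luminescence read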;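 on viability, T/C: 100% = DMSO vehicle control viability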
Settings: second compound 3.16 µM; first compound 0.00316 µM; stronger effect = lower value
readout-type: viability, T/C (%)
Write the value in % as a bare number.

These recorded examples may help you get a feel for the data.
- CC(C)CC(NC(=O)C(Cc1ccccc1)NC(=O)c1cnccn1)B(O)O (configuration not stated) + NC1CC1c1ccc(-c2cccc(O)c2)cc1: 0.12
- CC1COCCN1c1cc(-c2ccnn2C)c2ccnc(-c3ccn[nH]3)c2n1 (configuration not stated) + NC1CC1c1ccc(-c2cccc(O)c2)cc1: 58
- Cn1ncnc1C1c2n[nH]c(=O)c3cc(F)cc(c23)NC1c1ccc(F)cc1 (configuration not stated) + NC1CCC(NC2CC2c2ccccc2)CC1: 79.9

Answer with reported viability, T/C of O=C(C=Cn1cnc(-c2cc(C(F)(F)F)cc(C(F)(F)F)c2)n1)NNc1cnccn1 + NC1CC1c1ccc(-c2cccc(O)c2)cc1 73.9

Answer with reported viability, T/C of Nc1ncn(C2CC(O)C(CO)O2)c(=O)n1 (configuration not stated) + NC1CCC(NC2CC2c2ccccc2)CC1 82.3

Answer with reported viability, T/C of Cn1ncnc1C1c2n[nH]c(=O)c3cc(F)cc(c23)NC1c1ccc(F)cc1 (configuration not stated) + NC1CC1c1ccc(-c2cccc(O)c2)cc1 78.9

Answer with reported viability, T/C of O=C(C=Cn1cnc(-c2cc(C(F)(F)F)cc(C(F)(F)F)c2)n1)NNc1cnccn1 + NC1CCC(NC2CC2c2ccccc2)CC1 81.9

----------
Test system: SW 1271 complex spheroids, viability
Assay: Anticancer human tumor SW 1271 cell line growth inhibition [LSD1]; active = viability on the fitted dose curve at most 10% of control; inactive = the rest;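 further: spheroids exposed to agents for 7 days before luminescence read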
Details: second compound 0.1 µM; first compound 0.3 µM
Hi there, use one of these labels in your reply, thanks! yes (active), no (inactive)

* CCc1c2c(nc3ccc(O)cc13)-c1cc3c(c(=O)n1C2)COC(=O)[C@]3(O)CC + NC1CCC(NC2CC2c2ccccc2)CC1 | yes

Each molecule tested received a call. Report the one for O=C(C=Cc1cccc(S(=O)(=O)Nc2ccccc2)c1)NO + NC1CC1c1ccc(-c2cccc(O)c2)cc1 . no

Each molecule tested received a call. Report the one for NS(=O)(=O)OCC1CC(n2ccc3c(NC4CCc5ccccc54)ncnc32)CC1O (centres undefined) + NC1CC1c1ccc(-c2cccc(O)c2)cc1 . no

Each molecule tested received a call. Report the one for CCN(c1cc(-c2ccc(CN3CCOCC3)cc2)cc(C(=O)NCc2c(C)cc(C)[nH]c2=O)c1C)C1CCOCC1 + NC1CCC(NC2CC2c2ccccc2)CC1 . no
